Below, each entry is listed with its recorded pIC50.
- Measured on: human recombinant Btk (Homo sapiens, UniProt Q06187)
- Sequence (Q06187 whole entry): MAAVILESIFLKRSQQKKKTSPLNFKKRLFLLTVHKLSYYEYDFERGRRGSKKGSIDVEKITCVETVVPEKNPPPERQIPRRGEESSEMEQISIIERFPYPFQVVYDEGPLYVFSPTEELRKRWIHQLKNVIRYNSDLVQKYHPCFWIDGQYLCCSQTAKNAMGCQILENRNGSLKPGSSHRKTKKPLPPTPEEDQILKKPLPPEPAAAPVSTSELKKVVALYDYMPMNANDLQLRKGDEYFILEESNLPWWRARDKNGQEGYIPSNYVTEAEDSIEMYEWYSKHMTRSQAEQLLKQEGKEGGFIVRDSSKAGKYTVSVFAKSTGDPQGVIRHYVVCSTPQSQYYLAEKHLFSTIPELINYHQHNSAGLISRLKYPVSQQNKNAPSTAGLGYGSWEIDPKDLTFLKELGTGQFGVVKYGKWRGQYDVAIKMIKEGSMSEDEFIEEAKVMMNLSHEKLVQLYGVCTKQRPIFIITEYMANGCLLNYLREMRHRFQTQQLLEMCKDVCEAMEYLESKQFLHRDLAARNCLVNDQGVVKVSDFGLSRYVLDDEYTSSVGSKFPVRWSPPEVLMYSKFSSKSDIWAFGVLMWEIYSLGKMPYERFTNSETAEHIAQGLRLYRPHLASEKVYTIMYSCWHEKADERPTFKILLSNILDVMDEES
- Method notes: Btk Enzymatic Activity Assay (Caliper-based kinase assay)
- Condition notes: human recombinant Btk 2 nM, ATP 40 μM, peptide substrate 1 μM, room temperature for 3 h
Quick note: pIC50 values are minus log10 of concentrations in mol/L.

// solved cases for pIC50 follow
>>> result_number("N#CC(=CC1CC1)C(=O)N1CCC(c2cc3[nH]nc(N)c3c(-c3ccc(Oc4ccccc4)cc3)n2)CC1 [Example 8]")
8.70
>>> result_number("N#CC(=CC1CC1)C(=O)N1CCCC(c2cc3[nH]nc(N)c3c(-c3ccc(Oc4ccccc4)cc3)n2)C1 (stereo not shown) [Example 9]")
8.96
>>> result_number("CC(C)C=C(C#N)C(=O)N1CCC[C@@H]1c1cc2[nH]nc(N)c2c(-c2ccc(Oc3ccccc3)cc2)n1 [Example 11C]")
7.87

Please look at the following compound next.
Hello, I am looking for reported pIC50 with human recombinant Btk (Homo sapiens, UniProt Q06187) for CC(C)C=C(C#N)C(=O)N1CCC[C@H]1c1cc2[nH]nc(N)c2c(-c2ccc(Oc3ccccc3)cc2)n1 [Example 11B] . Could you help?
7.89

====

pIC50 overview
- Measured on: human recombinant Btk (Homo sapiens)
- Method notes: Btk Enzymatic Activity Assay (Caliper-based kinase assay)
- Condition notes: human recombinant Btk 2 nM, ATP 40 μM, peptide substrate 1 μM, room temperature for 3 h
Schema: pIC50 number; meaning minus log10 of the concentration expressed in molar units.

>>> result_number("N#CC(=CC1CC1)C(=O)N1CCCC1Cc1cc2[nH]nc(N)c2c(-c2ccc(Oc3ccccc3)cc2)n1 (stereo not shown)")
8.70
>>> result_number("CC(C)C=C(C#N)C(=O)N1CCC(Cc2cc3[nH]nc(N)c3c(-c3ccc(Oc4ccccc4)cc3)n2)C1 (stereo not shown) [Example 10A]")
8.92
>>> result_number("CC(C)C=C(C#N)C(=O)N1CCC[C@@H](c2cc3[nH]nc(N)c3c(-c3ccc(Oc4ccccc4)cc3)n2)C1")
8.03

# pIC50 lookup, item CC(C)C=C(C#N)C(=O)N1CCC[C@H](c2cc3[nH]nc(N)c3c(-c3ccc(Oc4ccccc4)cc3)n2)C1 [Example 11A]
7.81
